Record set of log10 of IC50 for target or system purified wild type MGL (wt-MGLL 6H-11-313) (Homo sapiens).
Values are log10 of IC50 in nM.

O=C(c1ccc2nc(-c3ccccc3)oc2c1)N1CCC(C2CN(C(=O)c3nccs3)C2)CC1 1.28
O=C(c1cc[nH]c1)N1CCC(C2CN(C(=O)c3ccc(-c4ccccc4)cc3)C2)CC1 2.19
O=C(c1ccc(-c2ccccc2)cc1)N1CC(C2CCN(C(=O)c3ccns3)CC2)C1 1.53
Cc1nc2cc(C(=O)N3CC(C4CCN(C(=O)c5nccs5)CC4)C3)ccc2n1-c1ccc(C(F)(F)F)cc1 1.53
O=C(c1ccc2c(c1)[nH]c(=O)n2-c1ccc(F)c(F)c1)N1CC(C2CCN(C(=O)c3nccs3)CC2)C1 1.22
O=C(c1ccc[nH]1)N1CC(C2CCN(C(=O)c3ccc(-c4ccccc4)cc3F)CC2)C1 1.58
O=C(c1ccc2c(c1)ncn2-c1ccc(F)c(F)c1)N1CC(C2CCN(C(=O)c3nccs3)CC2)C1 1.55
O=C(c1ccc2nc(-c3ccccc3)oc2c1)N1CCC(C2CN(C(=O)c3cscn3)C2)CC1 1.82
O=C(c1ccc(-c2ccc(C(F)(F)F)s2)cc1)N1CC(C2CCN(C(=O)c3cscn3)CC2)C1 1.00

Here is another molecule to look at.
// query Hello, please tell me recorded log10 of IC50 for this one: O=C(c1ccc(-c2ccccc2)cc1)N1CC(C2CCN(C(=O)c3cncs3)CC2)C1
// result 1.94

---

Target: MGL (Rattus norvegicus)
Construct: one g rat brain was homogenized; from tissue; host or cells: rat brain homogenate
Assay: 2-AG accumulation assay in rat brain homogenate
Type: biochemical
Settings: compound @1 μM, read-out: Rat Brain 2AG % VehCntrl (%) @1 μM
attribute.measured: 2-AG accumulation, percent of vehicle control at 1 µM (%)
Field format: number, assumed %, no unit text.

A selection of reference data follows.
O=C(c1ccc(-c2cccc(C(F)(F)F)c2)cc1)N1CC(C2CCN(C(=O)c3nccs3)CC2)C1 493
O=C(c1ccc(-c2ccc(C(F)(F)F)s2)cc1)N1CC(C2CCN(C(=O)c3nccs3)CC2)C1 457
O=C(c1nccs1)N1CC(C2CCN(C(=O)c3sc4cc(C(F)(F)F)ccc4c3Cl)CC2)C1 539
O=C(c1ccc(-c2cccc(C(F)(F)F)c2)cc1)N1CCC(C2CN(C(=O)c3ccc[nH]3)C2)CC1 561

// query Hello, please tell me recorded 2-AG accumulation, percent of vehicle control at 1 µM for this one: O=C(c1nccs1)N1CCC(C2CN(C(=O)c3sc4cc(F)ccc4c3Cl)C2)CC1
// result 523

// query Hello, please tell me recorded 2-AG accumulation, percent of vehicle control at 1 µM for this one: O=C(c1ccc(-c2cccc(C(F)(F)F)c2)cc1)N1CCC(C2CN(C(=O)c3cscn3)C2)CC1
// result 908

// query Hello, please tell me recorded 2-AG accumulation, percent of vehicle control at 1 µM for this one: O=C(c1ccc2c(ccn2-c2ccc(C(F)(F)F)cc2)c1)N1CCC(C2CN(C(=O)c3ccc[nH]3)C2)CC1
// result 714

// query Hello, please tell me recorded 2-AG accumulation, percent of vehicle control at 1 µM for this one: O=C(c1ccc(Cc2ccc(C(F)(F)F)cc2)cc1)N1CC(C2CCN(C(=O)c3ccc[nH]3)CC2)C1
// result 371

// query Hello, please tell me recorded 2-AG accumulation, percent of vehicle control at 1 µM for this one: O=C(c1ccc(Cc2cccc(C(F)(F)F)c2)cc1)N1CCC(C2CN(C(=O)c3nccs3)C2)CC1
// result 869

// query Hello, please tell me recorded 2-AG accumulation, percent of vehicle control at 1 µM for this one: O=C(c1ccc(Cc2cccc(C(F)(F)F)c2)cc1)N1CC(C2CCN(C(=O)c3nccs3)CC2)C1
// result 559

---

Molecular target: purified wild type MGL (wt-MGLL 6H-11-313) (Homo sapiens, UniProt Q99685)
Sequence (Q99685 1-303): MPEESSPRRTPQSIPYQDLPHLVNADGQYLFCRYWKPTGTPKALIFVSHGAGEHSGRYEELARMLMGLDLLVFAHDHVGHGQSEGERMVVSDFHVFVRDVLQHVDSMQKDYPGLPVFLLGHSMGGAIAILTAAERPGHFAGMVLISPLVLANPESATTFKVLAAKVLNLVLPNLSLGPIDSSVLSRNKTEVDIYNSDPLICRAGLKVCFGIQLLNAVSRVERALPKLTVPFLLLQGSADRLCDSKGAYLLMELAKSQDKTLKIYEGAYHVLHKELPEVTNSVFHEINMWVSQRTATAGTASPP
pIC50: −log10 of the molar value.
attribute.measured: pIC50

A selection of reference data follows.
molecule	assayed.target	pIC50
Cc1c(C(=O)N2CC(C3CCN(C(=O)c4nccs4)CC3)C2)sc2cc(C(F)(F)F)ccc12 [Cpd 20]	purified wild type MGL (wt-MGLL 6H-11-313) (Homo sapiens, UniProt Q99685)	> 8.30
O=C(c1ccc2c(ccn2-c2ccc(Cl)cn2)c1)N1CC(C2CCN(C(=O)c3nccs3)CC2)C1 [Cpd 93]	purified wild type MGL (wt-MGLL 6H-11-313) (Homo sapiens, UniProt Q99685)	> 8.30

Here is another molecule to look at.
// query Hello, please tell me recorded pIC50 for this one: O=C(c1ccc(Cc2cccc(C(F)(F)F)c2)cc1)N1CC(C2CCN(C(=O)c3cscn3)CC2)C1 [Cpd 13]
// result > 8.30

---

Target: MGL (Rattus norvegicus)
Construct: one g rat brain was homogenized; from tissue; host or cells: rat brain homogenate
Assay: 2-AG accumulation assay in rat brain homogenate
Format: biochemical
Conditions: compound @1 μM, read-out: Rat Brain 2AG % VehCntrl (%) @1 μM
attribute.measured: 2-AG accumulation, percent of vehicle control at 1 µM (%)
Field format: number, assumed %, no unit text.

A selection of reference data follows.
compound	endpoint.value
O=C(c1ccc(-c2ccc(C(F)(F)F)s2)cc1)N1CCC(C2CN(C(=O)c3nccs3)C2)CC1 [Cpd 54]	736
O=C(c1cccc(-c2cccc(F)c2)c1)N1CCC(C2CN(C(=O)c3nccs3)C2)CC1 [Cpd 51]	266
O=C(c1ccc(-c2ccccc2)cc1)N1CC(C2CCN(C(=O)c3cscn3)CC2)C1 [Cpd 1]	109

Here is another compound to look at.
// query Hello, please tell me recorded 2-AG accumulation, percent of vehicle control at 1 µM for this one: O=C(c1cccc(-c2cccc(F)c2)c1)N1CCC(C2CN(C(=O)c3cscn3)C2)CC1 [Cpd 52]
// result 193

---

Biological target: mutant MGL (Homo sapiens, UniProt Q99685, L169S/L176S)
Construct: purified mutant MGL (mut-MGLL 11-313 L179S L186S)
Assay: MGL ThermoFluor assay - mutant
Assay type: binding
Conditions: compound concentration measured by qNMR; read-out: MGL mutant ThermoFluor qKd (using qNMR conc.)
Description: The ThermoFluor (TF) assay is a 384-well plate-based binding assay that measures thermal stability of proteins^1,2. The experiments were carried out using instruments available from Johnson & Johnson Pharmaceutical Research & Development, LLC. TF dye used in all experiments was 1,8-ANS (Invitrogen: A-47). […] The Kd values for compounds of Formula (I) were determined from a fit of the equation to the concentration-response plot of the fractional activity as a function of Tm. […]
Kd values, listed per item
Field format: number, assumed nM, no unit text.

A selection of reference data follows.
compound	endpoint.value
O=C(c1ccc2nc(-c3ccccc3)oc2c1)N1CCC(C2CN(C(=O)c3nccs3)C2)CC1 [Cpd 66]	6.7
O=C(c1ccc2nc(-c3ccccc3)oc2c1)N1CCC(C2CN(C(=O)c3ccc[nH]3)C2)CC1 [Cpd 68]	14.5
Cc1nc2cc(C(=O)N3CC(C4CCN(C(=O)c5nccs5)CC4)C3)ccc2n1-c1ccc(F)cc1 [Cpd 87]	7.5
O=C(c1ccc2c(ccn2-c2ccc(F)cc2)c1)N1CCC(C2CN(C(=O)c3ccc[nH]3)C2)CC1 [Cpd 74]	8

Here is another compound to look at.
// query Report value only: Kd, mutant MGL (Homo sapiens, UniProt Q99685, L169S/L176S), O=C(c1ccc2c(c1)ncn2-c1ccc(F)cc1)N1CC(C2CCN(C(=O)c3nccs3)CC2)C1 [Cpd 81]
// result 14.8

---

pKd values, listed per item
Target: mutant MGL (Homo sapiens, UniProt Q99685, L169S/L176S)
Construct: purified mutant MGL (mut-MGLL 11-313 L179S L186S)
Sequence (Q99685 1-303 L169S/L176S): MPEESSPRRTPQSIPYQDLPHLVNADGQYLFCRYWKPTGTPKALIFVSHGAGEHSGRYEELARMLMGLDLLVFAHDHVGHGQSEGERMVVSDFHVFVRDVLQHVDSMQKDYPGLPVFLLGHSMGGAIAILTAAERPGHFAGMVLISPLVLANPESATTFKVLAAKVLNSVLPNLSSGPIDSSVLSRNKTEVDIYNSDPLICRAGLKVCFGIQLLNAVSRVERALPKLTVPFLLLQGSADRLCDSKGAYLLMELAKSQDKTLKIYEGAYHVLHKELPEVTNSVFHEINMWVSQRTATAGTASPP
Test: MGL ThermoFluor assay - mutant
Format: binding
Conditions: 0.07 mg/ml mutant MGL, pH=7.0; read-out: MGL mutant ThermoFluor Kd
By convention, pKd is the negative base-10 log of a molar concentration.

O=C(c1ccc2c(ccn2-c2ccc(F)c(F)c2)c1)N1CC(C2CCN(C(=O)c3cscn3)CC2)C1 7.81
O=C(c1ccc(-c2ccccc2)cc1)N1CC(C2CCN(C(=O)c3cscn3)CC2)C1 7.00
O=C(c1ccc(-c2ccccc2)cc1)N1CC(C2CCN(C(=O)c3cncs3)CC2)C1 7.19
O=C(c1nccs1)N1CCC(C2CN(C(=O)c3sc4cc(C(F)(F)F)ccc4c3Cl)C2)CC1 9.52
O=C(c1ccc(-c2ccccc2)cc1)N1CC(C2CCN(C(=O)c3ccns3)CC2)C1 7.25

// query Hello, please tell me recorded pKd for this one: O=C(c1cccc(-c2cccc(F)c2)c1)N1CC(C2CCN(C(=O)c3cscn3)CC2)C1
// result 6.14

// query Hello, please tell me recorded pKd for this one: O=C(c1ccc(Cc2cccc(C(F)(F)F)c2)cc1)N1CCC(C2CN(C(=O)c3ccc[nH]3)C2)CC1
// result 7.69

// query Hello, please tell me recorded pKd for this one: O=C(c1ccc2c(ccn2-c2ccc(F)cc2)c1)N1CC(C2CCN(C(=O)c3cscn3)CC2)C1
// result 7.65

// query Hello, please tell me recorded pKd for this one: O=C(c1ccc[nH]1)N1CCC(C2CN(C(=O)c3sc4cc(C(F)(F)F)ccc4c3Cl)C2)CC1
// result 8.39

// query Hello, please tell me recorded pKd for this one: O=C(c1ccc(-c2cccc(C(F)(F)F)c2)cc1)N1CC(C2CCN(C(=O)c3ccc[nH]3)CC2)C1
// result 8.18
